system: FLU A (PR/8/34); test: Flu A Neuraminidase Antiviral Assay; type: cell-based
Just a reminder that ties go to false (0): only EC50 strictly below 0.04 µM counts as true (1).

Reference set (5 entries):
# MOLECULE, ASSIGNED LABEL
data = [
    ("CCN1C(=O)c2c(O)c(=O)ccn2N2C1CCCC2(C)c1ccccc1 (single isomer, unassigned) [Compound 36A]", "true (1)"),
    ("CN1C(=O)c2c(O)c(=O)ccn2N2C(c3ccccc3C(F)(F)F)CCC12 (single isomer, unassigned) [Compound 15A]", "false (0)"),
    ("CC1(c2ccccc2)CCCC2N(CCC(F)(F)F)C(=O)c3c(O)c(=O)ccn3N21 (single isomer, unassigned) [Compound 38A]", "false (0)"),
    ("CN1C(=O)c2c(O)c(=O)ccn2N2C1CCCC21CCc2ccccc21 (single isomer, unassigned) [Compound 21A]", "false (0)"),
    ("CCN1C(=O)c2c(O)c(=O)ccn2N2C(c3ccccc3Br)C(CC(F)(F)F)CCC12 (single isomer, unassigned) [Compound 106B]", "false (0)"),
]

query: Would you kindly verify if EC50 of CN1C(=O)c2c(O)c(=O)ccn2N2C(c3ccccc3)C(c3ccc(F)c(F)c3F)CCC12 (single isomer, unassigned) [Compound 85D] is strictly less than 0.04 µM?
result: false (0)

query: Would you kindly verify if EC50 of CC1(c2ccccc2)CCCC2N(CC3CC(F)(F)C3)C(=O)c3c(O)c(=O)ccn3N21 (single isomer, unassigned) [Compound 45B] is strictly less than 0.04 µM?
result: true (1)

query: Would you kindly verify if EC50 of CN1C(=O)c2c(O)c(=O)ccn2N2C1CCCC2(C)c1ccccc1Cl (single isomer, unassigned) [Compound 20B] is strictly less than 0.04 µM?
result: true (1)

query: Would you kindly verify if EC50 of CN1C(=O)c2c(O)c(=O)ccn2N2C(c3ccccc3F)C(CC(F)(F)F)CCC12 (single isomer, unassigned) [Compound 127A] is strictly less than 0.04 µM?
result: false (0)

query: Would you kindly verify if EC50 of Cc1ccccc1C1C(c2ccc(F)c(F)c2)CCC2N(C)C(=O)c3c(O)c(=O)ccn3N12 (single isomer, unassigned) [Compound 91B] is strictly less than 0.04 µM?
result: true (1)

query: Would you kindly verify if EC50 of Cc1ccccc1C1C(CC2CC2(F)F)CCC2N(C)C(=O)c3c(O)c(=O)ccn3N12 (single isomer, unassigned) [Compound 88D] is strictly less than 0.04 µM?
result: true (1)

query: Would you kindly verify if EC50 of CN1C(=O)c2c(O)c(=O)ccn2N2C(c3ccccc3)C3CCCC(C3)C12 (single isomer, unassigned) [Compound 11B] is strictly less than 0.04 µM?
result: false (0)

query: Would you kindly verify if EC50 of CCN1C(=O)c2c(O)c(=O)ccn2N2C(c3ccccc3C)C(CCC(F)F)CCC12 (single isomer, unassigned) [Compound 102B] is strictly less than 0.04 µM?
result: true (1)

query: Would you kindly verify if EC50 of CC1(c2ccccc2)CCCC2N(CC3CC4(CCC4)C3)C(=O)c3c(O)c(=O)ccn3N21 (single isomer, unassigned) [Compound 42B] is strictly less than 0.04 µM?
result: false (0)

From: patent US20240018145A1
